- System: MCF7
- ASSAY PROCEDURE: Induction of apoptosis in human MCF7 cells assessed as early apoptotic cells level at IC50 incubated for 72 hrs by annexin V/propidium iodide staining based flow cytometry (reference value: 0.01%)
- Type: functional
READOUT TYPE: Activity
Write the numeric value and follow it with the unit.

O=C(Cc1ccccc1)OC1(C(=O)Nc2ccc([N+](=O)[O-])cc2)CCCCC1 yielded Activity of 7.06%

For this molecule ( O=C(OC1(C(=O)Nc2ccc([N+](=O)[O-])cc2)CCCCC1)C(O)c1ccccc1 (centres undefined) ), measured Activity is 3.76%

Notebook: O=C(OC1(C(=O)Nc2ccc([N+](=O)[O-])cc2)CCCCC1)c1ccc([N+](=O)[O-])cc1 , Activity read as 1.96%

Reported Activity of COc1cccc2c1C(=O)c1c(O)c3c(c(O)c1C2=O)C[C@@](O)(C(=O)CO)C[C@@H]3O[C@H]1C[C@H](N)[C@H](O)[C@H](C)O1 [DOXORUBICIN] : 5.92%
